Molecular target: ShHTL6 (Striga hermonthica)
Sequence (A0A0M4AUV4 1-271): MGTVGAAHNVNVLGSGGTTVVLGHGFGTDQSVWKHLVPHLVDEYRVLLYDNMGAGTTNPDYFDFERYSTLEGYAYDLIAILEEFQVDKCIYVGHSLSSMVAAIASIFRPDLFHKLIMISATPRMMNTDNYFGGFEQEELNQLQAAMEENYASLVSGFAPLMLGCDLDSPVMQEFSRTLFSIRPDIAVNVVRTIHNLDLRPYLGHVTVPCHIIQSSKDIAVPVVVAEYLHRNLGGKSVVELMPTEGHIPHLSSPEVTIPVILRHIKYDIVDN
Experiment: YLG assay (inhibition of YLG hydrolysis) with recombinant ShHTL6
Assay type: biochemical
Conditions: ShHTL6, YLG hydrolysis, 1 h incubation; read-out: IC50 in YLG assay

{"columns": ["Molecule", "IC50 [nM]"],
 "data": [
  ["CC1=C[C@H](O/C=C2/C(=O)O[C@@H]3c4ccccc4C[C@H]23)OC1=O (relative stereo) [GR24, reference compound]", 2350]
]}

###

The entries below come with measured pIC50 values attached.
Target: ShHTL6 (Striga hermonthica)
Sequence (A0A0M4AUV4 1-271): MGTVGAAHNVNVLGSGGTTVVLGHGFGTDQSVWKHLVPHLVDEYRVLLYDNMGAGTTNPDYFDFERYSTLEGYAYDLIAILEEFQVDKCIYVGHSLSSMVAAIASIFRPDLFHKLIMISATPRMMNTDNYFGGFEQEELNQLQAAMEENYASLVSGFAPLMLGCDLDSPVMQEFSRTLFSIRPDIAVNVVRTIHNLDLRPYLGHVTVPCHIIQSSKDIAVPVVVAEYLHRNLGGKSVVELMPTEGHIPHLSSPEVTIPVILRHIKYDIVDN
Assay: YLG assay (inhibition of YLG hydrolysis) with recombinant ShHTL6
Type: biochemical
pIC50: −log10 of the molar value.

{"columns": ["Molecule", "pIC50"],
 "data": [
  ["CC1=CC(OC(=O)/C=C/c2ccccc2)OC1=O (stereo not drawn)", 5.73],
  ["CC1=CC(OC(=O)/C=C\\c2ccccc2)OC1=O (stereo not drawn)", 6.05],
  ["CC1=CC(OC(=O)CCc2ccccc2)OC1=O (stereo not drawn)", 5.65]
]}

Reference source for all entries: paper PMC9002265
